Source of measurements: ChEMBL document CHEMBL1137119

molecular target: UniProt:P34998; assay: Binding affinity for recombinant human CRF1 receptor
Sequence (P34998 whole entry): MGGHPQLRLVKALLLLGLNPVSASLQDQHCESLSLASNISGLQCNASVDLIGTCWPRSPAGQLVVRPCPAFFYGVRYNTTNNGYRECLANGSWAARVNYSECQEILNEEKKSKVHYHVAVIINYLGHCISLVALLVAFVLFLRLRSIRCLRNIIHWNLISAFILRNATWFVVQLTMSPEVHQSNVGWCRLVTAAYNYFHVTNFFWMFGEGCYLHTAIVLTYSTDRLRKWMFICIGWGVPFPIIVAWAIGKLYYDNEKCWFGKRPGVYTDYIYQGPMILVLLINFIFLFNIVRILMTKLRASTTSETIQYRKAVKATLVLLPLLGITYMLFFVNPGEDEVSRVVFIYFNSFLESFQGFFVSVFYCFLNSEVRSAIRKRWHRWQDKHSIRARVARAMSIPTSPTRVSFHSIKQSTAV
endpointLabel: pKi
Quick note: pKi means taking -log10 of the concentration in moles per liter.

substanceSmiles	endpointLabel	number
CCCN(CCC)c1cc(C)nc2c(-c3ncc(N4CCCCC4)cc3C)c(C)nn12	pKi	7.77
CCCN(CCC)c1cc(C)nc2c(-c3ncc(C)cc3[N+](=O)[O-])c(C)nn12	pKi	7.85
CCCN(CCC)c1cc(C)nc2c(-c3ncc(C)cc3N)c(C)nn12	pKi	7.40

Reported pKi, compound CCCCN(CCCC)c1cc(C)nc2c(-c3ncc(C(F)(F)F)cc3Cl)c(C)nn12 : ____
8.96

Try the compound CCCN(CCC)c1cc(C)nc2c(-c3ncc(C)cc3NC)c(C)nn12
7.89

Try the compound CCCN(CCC)c1cc(C)nc2c(-c3ncc(N(C)C)cc3C)c(C)nn12
8.00

Try the compound CCCN(CCC)c1cc(C)nc2c(-c3ncc(I)cc3C)c(C)nn12
8.18

Try the compound CCCCN(CCC)c1cc(C)nc2c(-c3ncc(C(F)(F)F)cc3Cl)c(C)nn12
8.92

Try the compound CCCN(CCC)c1cc(C)nc2c(-c3ncc(Cl)cc3C)c(C)nn12
8.17

Try the compound CCCN(CCC)c1cc(C)nc2c(-c3ncc(Cl)cc3Cl)c(C)nn12
8.49

----------
target: UniProtKB P34998; assay: Binding affinity for recombinant human CRF1 receptor
pKi: −log10 of the molar value.
Classify by measured pKi: criterion met if it is equal to or exceeds 8, criterion not met if it is smaller.

substanceSmiles	labelClass
CCCN(CCC)c1cc(C)nc2c(-c3ncc(F)cc3C)c(C)nn12	criterion not met

Quick check, pKi >= 8? CCCN(CC1CC1)c1cc(C)nc2c(-c3ncc(Cl)cc3Cl)c(C)nn12
criterion met

Try the compound CCCN(CCC)c1cc(C)nc2c(-c3ncc(C)cc3OC)c(C)nn12
criterion not met

Try the compound CCCN(CCC)c1cc(C)nc2c(-c3ncc(N)cc3C)c(C)nn12
criterion not met

Try the compound CCCN(CCC)c1cc(C)nc2c(-c3ncc(O)cc3C)c(C)nn12
criterion not met

Try the compound CCCN(CCC)c1cc(C)nc2c(-c3ncc(N=O)cc3C)c(C)nn12
criterion not met
